Provide the reported pKd of each item.
biological target: T1, Notch1 extracellular fragment (amino acid 19-526) Fc fusion protein, R&D Systems 3647-TK (human, UniProt P46531 19-526); test: BIAcore SPR, Notch1/Fc on CM5, Mab analyte, 1:1 binding
T1 construct: bought protein; also called Notch1/Fc; Notch1-ECD Fc fusion protein; not shown: Fc of the bought fusion protein
T1 sequence (P46531 19-526 limits assumed): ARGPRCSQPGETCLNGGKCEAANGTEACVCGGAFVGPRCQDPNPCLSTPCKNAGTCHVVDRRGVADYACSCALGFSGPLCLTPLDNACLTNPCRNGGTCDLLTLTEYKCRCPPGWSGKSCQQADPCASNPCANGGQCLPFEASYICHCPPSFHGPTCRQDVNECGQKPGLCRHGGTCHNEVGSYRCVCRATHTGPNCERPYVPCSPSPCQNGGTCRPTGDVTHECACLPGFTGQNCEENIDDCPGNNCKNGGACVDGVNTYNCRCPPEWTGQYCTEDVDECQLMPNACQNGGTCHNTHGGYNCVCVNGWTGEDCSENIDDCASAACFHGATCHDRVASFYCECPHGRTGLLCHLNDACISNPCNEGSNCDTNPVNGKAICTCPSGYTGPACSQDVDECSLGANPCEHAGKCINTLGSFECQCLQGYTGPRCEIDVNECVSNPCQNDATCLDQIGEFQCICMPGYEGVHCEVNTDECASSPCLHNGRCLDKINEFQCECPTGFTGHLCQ
Numbers only, as −log10 of the molar value.

Solved cases below.
[[record]]
binder = "WC-155 (antibody, human IgG1, lambda, V domains shown, also called N1wc155; hN1wc-155) VH: EVQLVQSGAEVKKPGASVKVSCKASGYNFTGYYMHWVRQAPGQGLEWMGWINPNSGGTNYAQKFQGRVTMTRDTSISTAYMELSRLRSDDTAVYYCATDSFDYWGRGTLVTVSS VL: QSVLTQPPSVSGAPGQRVTISCTGSSSNIGAGYDVLWYRQLPGTAPKLLIYGNTHRPSGVPDRFSGSNSGTSASLAITGLQAEDEADYYCQSYDSSLSGSVFGGGTKLTVLQ"
numeric_value = 8.76

[[record]]
binder = "S3-013 (antibody, human IgG1, lambda, V domains shown, also called hN1S3-013; HN1S3-13) VH: EVQLVQSGAEVKKPGASVKVSCKASGYNFTGYYMHWVRQAPGQGLEWMGWINPNSGGTNYAQKFQGRVTMTRDTSISTAYMELSRLRSDDTAVYYCATDSFDYWGRGTLVTVSS VL: QPVLTQPPSASGTPGQRVTISCSGSSSNIGSNYVYWYQKFPGTAPKLLIYTNNQRPSGVPDRFSGSKSGTSASLAISGLRSEDEADYYCAAWDDSLSGVVFGGGTKVTVLQ"
numeric_value = 8.31


Please report the recorded pKd for WC-173 (antibody, human IgG1, lambda, V domains shown, also called N1wc173; hN1wc-173) VH: EVQLVQSGAEVKKPGASVKVSCKASGYNFTGYYMHWVRQAPGQGLEWMGWINPNSGGTNYAQKFQGRVTMTRDTSISTAYMELSRLRSDDTAVYYCATDSFDYWGQGTTVTVSS VL: QPVLTQPPSASWTPGQRVTISCSGSSSNIGSNTVHWYRQFPGTAPQLLIYSNNQRPSGVPDRFSGSKSGTSASLAIRGLQSEDEADYYCAAWDDSLNGVVFGGGIKLTVLQ .
8.49
